Reference for the values: patent US12285431B2

Test system: HS68 cells
Assay: G1 arrest (cellular G1 and S-phase) assay, propidium iodide flow cytometry
Type: cell-based, human
Settings: Homo sapiens, Hs68, HS68 cells
RECORDED ENDPOINT: EC50 (nM)

COMPOUND | NUMERIC RESULT
CC1(C)CN(c2ccc(Nc3ncc4cc5n(c4n3)C3(CCCCC3)CNC5=O)nc2)CCN1CC1CC1 | 85
C[C@@H]1CN(c2ccc(Nc3ncc4cc5n(c4n3)C3(CCCC3)CNC5=O)nc2)C[C@H](C)N1 | 350
CC(C)N1CCN(c2ccc(Nc3ncc4cc5n(c4n3)C3(CCCCC3)CNC5=O)nc2)CC1C (centres unmarked) | 100
CC(C)(C)CCN1CCN(c2ccc(Nc3ncc4cc5n(c4n3)C3(CCCC3)CNC5=O)nc2)CC1(C)C | 250
C[C@H](O)CN1CCN(c2ccc(Nc3ncc4cc5n(c4n3)C3(CCCCC3)CNC5=O)nc2)CC1 | 110
O=C1NCC2(CCCCC2)n2c1cc1cnc(Nc3ccc(N4CCC(N5CCOCC5)CC4)cn3)nc12 | 25
CC1CN(c2ccc(Nc3ncc4cc5n(c4n3)C3(CCCCC3)CNC5=O)nc2)CCN1CCC(C)(C)C (centres unmarked) | 175
CN1CCN(c2ccc(Nc3ncc4cc5n(c4n3)C3(CCCC3)CNC5=O)nc2)CC1 | 500

----------
Parameter AUC 0-inf (uM * h) i.v.: see the listing below.
Assay: Mouse pharmacokinetics (oral gavage / intravenous)
Type: in vivo, mice
Settings: 10 mg/kg intravenous injection
RECORDED ENDPOINT: AUC 0-inf (uM * h) i.v. (µM·h)

CHEM SMILES | NUMERIC RESULT
O=C1NCC2(CCCCC2)n2c1cc1cnc(Nc3ccc(N4CCNCC4)cn3)nc12 | 0.95
CC(C)N1CCN(c2ccc(Nc3ncc4cc5n(c4n3)C3(CCCCC3)CNC5=O)nc2)CC1 | 1.1
O=C1NCC2(CCCCC2)n2c1cc1cnc(Nc3ccc(N4CCC(N5CCOCC5)CC4)cn3)nc12 | 0.76
CN1CCN(c2ccc(Nc3ncc4cc5n(c4n3)C3(CCCCC3)CNC5=O)nc2)CC1 | 1.3

----------
Biological target: CDK6/CycD3 (Homo sapiens, UniProt Q00534)
Sequence (Q00534 whole entry, species assumed): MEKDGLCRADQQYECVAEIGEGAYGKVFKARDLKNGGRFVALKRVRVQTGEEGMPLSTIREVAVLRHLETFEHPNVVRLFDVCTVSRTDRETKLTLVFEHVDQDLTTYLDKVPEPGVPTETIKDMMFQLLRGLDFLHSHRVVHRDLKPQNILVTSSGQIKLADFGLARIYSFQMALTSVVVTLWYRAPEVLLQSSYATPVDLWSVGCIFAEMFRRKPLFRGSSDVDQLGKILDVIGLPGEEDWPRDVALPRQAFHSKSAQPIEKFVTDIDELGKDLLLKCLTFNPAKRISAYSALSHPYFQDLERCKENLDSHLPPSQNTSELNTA
Sequence (P30281 whole entry partner, species assumed): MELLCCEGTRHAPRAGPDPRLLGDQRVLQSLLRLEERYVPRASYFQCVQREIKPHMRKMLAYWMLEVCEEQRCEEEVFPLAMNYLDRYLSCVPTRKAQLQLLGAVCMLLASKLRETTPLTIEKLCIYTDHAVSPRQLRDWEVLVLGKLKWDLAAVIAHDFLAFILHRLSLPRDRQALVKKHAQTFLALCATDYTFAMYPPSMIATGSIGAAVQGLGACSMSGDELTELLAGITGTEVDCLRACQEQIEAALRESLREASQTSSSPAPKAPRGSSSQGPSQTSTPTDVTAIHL
Experiment: CDK6/CycD3 kinase assay
Conditions: read-out: CDK6/CycD3 IC50; Table 3
pIC50: −log10 of the molar value.

CHEM SMILES | pIC50
CC(C)N1CCN(c2ccc(Nc3ncc4cc5n(c4n3)C3(CCCCC3)CNC5=O)nc2)CC1 | 8.33

----------
Parameter EC50: see the listing below.
System: ZR-75-1 (breast ductal carcinoma, Rb-positive)
Assay: Cellular proliferation assay (CellTiter-Glo), ZR-75-1
Assay type: cell-based
Conditions: Homo sapiens, ZR-75-1, 144 h, cell viability after six days, read-out: ZR75-1 Cellular EC50

COMPOUND | EC50 / µM
O=C1NCC2(CCCCC2)n2c1cc1cnc(Nc3ccc(N4CCC(N5CCCCC5)CC4)cn3)nc12 [N] | 0.024
C[C@@H]1CN(c2ccc(Nc3ncc4cc5n(c4n3)C3(CCCCC3)CNC5=O)nc2)C[C@H](C)N1C[C@@H](C)O [MM] | 0.077
O=C1NCC2(CCCCC2)n2c1cc1cnc(Nc3ccc(N4CCNCC4)cn3)nc12 [Compound Q] | 0.035
CN1CCN(c2ccc(Nc3ncc4cc5n(c4n3)C3(CCCCC3)CNC5=O)nc2)CC1 [Compound T] | 0.036
CN(C)C1CCN(c2ccc(Nc3ncc4cc5n(c4n3)C3(CCCCC3)CNC5=O)nc2)CC1 [O] | 0.029
CN(C)C1CCN(c2ccc(Nc3ncc4cc5n(c4n3)C3(CCCCC3)CNC5=O)nn2)CC1 [SS] | 0.053
O=C1NCC2(CCCCC2)n2c1cc1cnc(Nc3ccc(N4CCC(N5CCOCC5)CC4)cn3)nc12 [Compound U] | 0.059
C[C@H]1CN(c2ccc(Nc3ncc4cc5n(c4n3)C3(CCCCC3)CNC5=O)nc2)CCN1C [R] | 0.05
C[C@H](O)CN1CCN(c2ccc(Nc3ncc4cc5n(c4n3)C3(CCCCC3)CNC5=O)nc2)CC1 [A] | 0.044
CC(C)N1CCN(c2ccc(Nc3ncc4cc5n(c4n3)C3(CCCCC3)CNC5=O)nc2)C[C@@H]1C [AA] | 0.047
C[C@H](O)CN1[C@H](C)CN(c2ccc(Nc3ncc4cc5n(c4n3)C3(CCCCC3)CNC5=O)nc2)C[C@@H]1C [Z] | 0.054
CC1(C)CN(c2ccc(Nc3ncc4cc5n(c4n3)C3(CCCCC3)CNC5=O)nc2)CCN1CC1CC1 [H] | 0.12
C[C@@H]1CN(c2ccc(Nc3ncc4cc5n(c4n3)C3(CCCCC3)CNC5=O)nc2)CCN1 [V] | 0.029
CC1(C)CN(c2ccc(Nc3ncc4cc5n(c4n3)C3(CCCCC3)CNC5=O)nc2)CCN1 [I] | 0.04
CC(C)N1CCN(C(=O)c2ccc(Nc3ncc4cc5n(c4n3)C3(CCCCC3)CNC5=O)nc2)CC1 [II] | 0.033
CCOCCN1CCN(c2ccc(Nc3ncc4cc5n(c4n3)C3(CCCC3)CNC5=O)nc2)CC1 [MMM] | 0.141

----------
Target: CDK4/CyclinD1 (Homo sapiens)
Sequence (P11802 whole entry, species assumed): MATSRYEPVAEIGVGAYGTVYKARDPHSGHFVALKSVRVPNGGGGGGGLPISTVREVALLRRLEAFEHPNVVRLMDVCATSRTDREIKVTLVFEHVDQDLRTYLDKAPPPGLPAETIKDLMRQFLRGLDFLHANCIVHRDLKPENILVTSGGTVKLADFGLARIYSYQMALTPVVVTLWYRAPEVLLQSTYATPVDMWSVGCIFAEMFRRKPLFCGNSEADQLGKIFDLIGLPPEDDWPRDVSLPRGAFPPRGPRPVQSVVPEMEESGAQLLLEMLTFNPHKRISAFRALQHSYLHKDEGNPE
Sequence (P24385 whole entry partner, species assumed): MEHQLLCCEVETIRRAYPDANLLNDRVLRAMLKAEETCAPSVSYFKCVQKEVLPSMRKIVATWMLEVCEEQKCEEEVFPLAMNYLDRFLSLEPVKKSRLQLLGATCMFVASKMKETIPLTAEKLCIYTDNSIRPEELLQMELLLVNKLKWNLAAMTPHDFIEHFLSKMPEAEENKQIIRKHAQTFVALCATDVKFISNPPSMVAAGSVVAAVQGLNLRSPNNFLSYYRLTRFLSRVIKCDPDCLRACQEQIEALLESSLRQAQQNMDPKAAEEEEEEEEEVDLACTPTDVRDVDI
Assay: CDK4/cyclinD1 kinase assay (Nanosyn, Caliper microfluidic kinase detection)
Type: biochemical
Settings: Table 2; 12-point dose-response, ATP at Km (200 μM), 10 hr; read-out: CDK4/CycD1 IC50

MOLECULE | EXPERIMENTAL SYSTEM | IC50 / nM
CC1CN(c2ccc(Nc3ncc4cc5n(c4n3)C3(CCCC3)CNC5=O)nc2)CCN1CC1CC1 (centres unmarked) | CDK4/CyclinD1 (Homo sapiens) | 1.4
CCC(C)CN1[C@H](C)CN(c2ccc(Nc3ncc4cc5n(c4n3)C3(CCCC3)CNC5=O)nc2)C[C@@H]1C (some centres unmarked) | CDK4/CyclinD1 (Homo sapiens) | 3.2
CC(C)N1CCN(c2ccc(Nc3ncc4cc5n(c4n3)C3(CCCC3)CNC5=O)nc2)CC1C (centres unmarked) | CDK4/CyclinD1 (Homo sapiens) | 13.7
C[C@H]1CN(c2ccc(Nc3ncc4cc5n(c4n3)C3(CCCCC3)CNC5=O)nc2)CCN1C | CDK4/CyclinD1 (Homo sapiens) | 0.5
CC(C)N1CCN(c2ccc(Nc3ncc4cc5n(c4n3)C3(CCCC3)CNC5=O)nc2)CC1 | CDK4/CyclinD1 (Homo sapiens) | 6
CC(C)N1CCN(c2ccc(Nc3ncc4cc5n(c4n3)C3(CCCCC3)CNC5=O)nn2)CC1 | CDK4/CyclinD1 (Homo sapiens) | 0.8
CN(C)C1CCN(c2ccc(Nc3ncc4cc5n(c4n3)C3(CCCCC3)CNC5=O)nn2)CC1 | CDK4/CyclinD1 (Homo sapiens) | 0.8
O=C1NCC2(CCCCC2)n2c1cc1cnc(Nc3ccc(C(=O)N4CCNCC4)cn3)nc12 | CDK4/CyclinD1 (Homo sapiens) | 2.5

----------
System: HS68 cells
Assay: G1 arrest (cellular G1 and S-phase) assay, propidium iodide flow cytometry
Format: cell-based, human
Settings: Homo sapiens, Hs68, HS68 cells
pEC50: −log10 of the molar value.
RECORDED ENDPOINT: pEC50

COMPOUND | NUMERIC RESULT
CN1CCN(c2ccc(Nc3ncc4cc5n(c4n3)C3(CCCCC3)CNC5=O)nc2)CC1 | 7.00
C[C@@H]1CN(c2ccc(Nc3ncc4cc5n(c4n3)C3(CCCCC3)CNC5=O)nc2)CCN1C | 6.96
CC1CN(c2ccc(Nc3ncc4cc5n(c4n3)C3(CCCCC3)CNC5=O)nc2)CC(C)N1CC1CC1 (centres unmarked) | 7.02
CCN(CC)C1CCN(c2ccc(Nc3ncc4cc5n(c4n3)C3(CCCCC3)CNC5=O)nc2)CC1 | 7.05
O=C1NCC2(CCCC2)n2c1cc1cnc(Nc3ccc(N4CCNCC4)cn3)nc12 | 6.30
CC(C)C1CN(c2ccc(Nc3ncc4cc5n(c4n3)C3(CCCCC3)CNC5=O)nc2)CCN1 (centres unmarked) | 7.12
C[C@H]1CN(c2ccc(Nc3ncc4cc5n(c4n3)C3(CCCCC3)CNC5=O)nc2)CCN1C | 7.15
C[C@@H]1CN(c2ccc(Nc3ncc4cc5n(c4n3)C3(CCCCC3)CNC5=O)nc2)CCN1C[C@@H](C)O | 6.96
C[C@H](O)CN1CCN(c2ccc(Nc3ncc4cc5n(c4n3)C3(CCCC3)CNC5=O)nc2)C[C@H]1C | 6.65
C[C@H]1CN(c2ccc(Nc3ncc4cc5n(c4n3)C3(CCCCC3)CNC5=O)nc2)CCN1CC1CC1 | 7.05
CN(C)C1CCN(c2ccc(Nc3ncc4cc5n(c4n3)C3(CCCC3)CNC5=O)nc2)CC1 | 6.76
O=C1NCC2(CCCCC2)n2c1cc1cnc(Nc3ccc(N4CCC(N5CCC(C(F)(F)F)CC5)CC4)cn3)nc12 | 7.19
CC(C)(O)CN1CCN(c2ccc(Nc3ncc4cc5n(c4n3)C3(CCCC3)CNC5=O)nc2)CC1 | 6.60
O=C1NCC2(CCCCC2)n2c1cc1cnc(Nc3ccc(N4CCN(C5CCC5)CC4)cn3)nc12 | 6.76
C[C@H](O)CN1CCN(c2ccc(Nc3ncc4cc5n(c4n3)C3(CCCCC3)CNC5=O)nc2)C[C@@H]1C | 7.02
C[C@H]1CN(c2ccc(Nc3ncc4cc5n(c4n3)C3(CCCCC3)CNC5=O)nc2)CCN1CCC(C)(C)C | 7.00
CC1(C)CN(c2ccc(Nc3ncc4cc5n(c4n3)C3(CCCCC3)CNC5=O)nc2)CCN1C1CC1 | 7.12
